Just for reference, patent US9290451B2 is where these values come from.

- testTarget: human CB2 receptors (Homo sapiens (Human), UniProt P34972)
- Sequence (P34972 whole entry): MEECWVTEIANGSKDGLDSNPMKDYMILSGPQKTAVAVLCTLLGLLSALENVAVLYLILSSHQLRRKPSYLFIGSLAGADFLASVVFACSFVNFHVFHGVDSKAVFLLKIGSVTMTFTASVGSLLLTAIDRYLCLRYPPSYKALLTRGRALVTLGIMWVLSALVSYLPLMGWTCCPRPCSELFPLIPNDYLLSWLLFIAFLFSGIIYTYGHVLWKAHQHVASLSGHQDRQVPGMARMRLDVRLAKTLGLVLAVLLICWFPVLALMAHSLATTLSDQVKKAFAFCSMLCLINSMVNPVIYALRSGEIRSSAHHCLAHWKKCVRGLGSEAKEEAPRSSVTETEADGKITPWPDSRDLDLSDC
- assayMethodText: cAMP assay, CHO cells expressing human CB2 receptors
- Assay type: cell-based
- testContext: CHO cells expressing human CB2, cAMP; read-out: human CB2 EC50
measuredMetric: log10 of EC50 (log10 of the value in nM)
Log scale reminder: EC50 in nM, then log10 taken.

// field: log10 of EC50; key: Cc1nc([C@H](CC2CC2)NC(=O)c2ccc(C3CC3)c(OCC3CC3)n2)no1 ; value = 1.16

Recorded log10 of EC50 (compound NC(=O)[C@H](CC1CC1)NC(=O)c1ccc(NC2CC2)c(OCC2CC2)n1 ): 1.58

Measured log10 of EC50, COC(=O)C(C)(C)NC(=O)c1cccc(-c2ccccc2Cl)n1 : 1.76

// Cc1nc(C(C)(C)NC(=O)c2ccc(C3CCOC3)c(-c3cccc(Cl)c3)n2)no1 (stereo not drawn) : log10 of EC50 value = 2.55

The compound identified as CC(C)(NC(=O)c1ccc(N2CC(F)(F)C2)c(OCC(F)(F)F)n1)c1nccs1 registered its log10 of EC50 at 2.21

For record COC(=O)C(C)(C)NC(=O)c1cccc(-c2cccc(Cl)c2)n1 the listed log10 of EC50 is 1.84

// field: log10 of EC50; key: CC(C)(NC(=O)c1ccc(C2CCCC2)c(-c2cccc(Cl)c2)n1)c1nccs1 ; value = 2.38

###

- testTarget: human CB2 receptors (Homo sapiens (Human), UniProt P34972)
- assayMethodText: cAMP assay, CHO cells expressing human CB2 receptors
- Type: cell-based
- testContext: CHO cells expressing human CB2, cAMP; read-out: human CB2 EC50
The compounds listed here are annotated with their pEC50.
By convention, pEC50 is the negative base-10 log of a molar concentration.

- compound: "CC(C)C[C@H](NC(=O)c1ccc(N2CC(F)(F)C2)c(OCC2CC2)n1)C(=O)N1CC(F)(F)C1 [Example 311]"
  pEC50: 8.08

pEC50 measured on O=C(N[C@H](c1cccnc1)C(F)(F)F)c1ccc(N2CC(F)(F)C2)c(OCC2CC2)n1 [Example 237] = 7.01

###

Recorded measurements of pEC50, one per entry
- testTarget: human CB2 receptors (Homo sapiens (Human))
- assayMethodText: cAMP assay, CHO cells expressing human CB2 receptors
- Assay type: cell-based
- testContext: CHO cells expressing human CB2, cAMP; read-out: human CB2 EC50
- Method: CHO cells expressing human CB1 or CB2 receptors are seeded 17-24 hours prior to the experiment 50.000 cells per well in a black 96 well plate with flat clear bottom (Corning Costar #3904) in DMEM (Invitrogen No. 31331), 1×HT supplement, with 10% fetal calf serum and incubated at 5% CO2 and 37° C. in a humidified incubator. […] The time-resolved energy transfer is measured by a TRF reader (Evotec Technologies GmbH), equipped with a ND:YAG laser as excitation source. […]
Answer as the number alone; pEC50 is minus log10 of concentration in mol/L.

Below: 5 molecules and their reported pEC50.
- molecule: "Cc1nc(C(C)(C)NC(=O)c2ccc(C3CC3)c(OCC3CC3)n2)no1"
  pEC50: 7.06
- molecule: "CC[C@H](NC(=O)c1ccc(C2CC2)c(OCC2CC2)n1)c1noc(C)n1"
  pEC50: 7.85
- molecule: "Cc1cnc(C(C)(C)NC(=O)c2ccc(C3CC3)c(OCC3CC3)n2)s1"
  pEC50: 8.44
- molecule: "CC(C)(NC(=O)c1ccc(Cl)c(-c2cccc(Cl)c2)n1)c1ncon1"
  pEC50: 6.45
- molecule: "CNC(=O)[C@H](CC(C)(C)C)NC(=O)c1ccc(C(F)(F)F)c(OCC2CC2)n1"
  pEC50: 7.77

Item: Cc1nc(C(C)(C)NC(=O)c2ccc(C3CC3)c(OCC3CCOCC3)n2)no1 | pEC50: 7.63

The recorded pEC50 for CNC(=O)[C@H](CC(C)C)NC(=O)c1ccc(C2CC2)c(OCC2CCOCC2)n1 is 8.57

Measured pEC50 of Cc1nc(C(C)(C)NC(=O)c2cccc(-c3ccc(F)c(Cl)c3)n2)no1 : 8.06

# pEC50 (molecule: N#C[C@H](NC(=O)c1ccc(C2CC2)c(OCC2CC2)n1)C1CC1 ) is 7.29

// sample COCCOc1nc(C(=O)N[C@@H](CC(C)C)C(N)=O)ccc1N1CC(F)(F)C1 , its pEC50 was 7.64

Sample CN(C)C(=O)[C@H](CC1CC1)NC(=O)c1ccc(N2CC(F)(F)C2)c(OCC2CC2)n1 ; pEC50 observed: 8.03

Query CC[C@@H](NC(=O)c1ccc(C2CC2)c(OCC2CC2)n1)c1noc(C)n1 yields pEC50 of 7.69

Entry Cc1nc(C(C)(C)NC(=O)c2cccc(-c3ccc(Cl)c(F)c3)n2)no1 — recorded pEC50 = 7.58
